Entries and their Velvetleaf plant response rating values follow.
System: velvetleaf
Experiment: Test B pre-/postemergence herbicide test
Type: in vivo, Abutilon theophrasti
Settings: postemergence, 125 g ai/ha; visual rating, scale 0 (no effect) to 100 (complete control)
Would you mind answering with just the numeric figure?

Some molecules with recorded Velvetleaf plant response rating:
{"molecule": "CC(C)NS(=O)(=O)c1cccc(NC(=O)c2cc(C(C)(C)C)nn2C)c1 [Compound 124]", "quantitative result": 0}
{"molecule": "CCNC(=O)c1cccc(NC(=O)c2sc(C(C)(C)C)nc2CC)n1 [Compound 213]", "quantitative result": 0}
{"molecule": "C=CCNC(=O)c1cccc(NC(=O)c2sc(C(C)(C)C)nc2CC)c1 [Compound 207]", "quantitative result": 20}
{"molecule": "CCOC(=O)c1cccc(NC(=O)c2cc(C(C)(C)C)nn2CC)c1C [Compound 88]", "quantitative result": 30}
{"molecule": "CCOC(=O)c1ccc(F)c(NC(=O)c2cc(C(C)(C)C)nn2CC)c1 [Compound 70]", "quantitative result": 20}

Shift focus to the following entry.
Inquiry: Would you mind telling me what Velvetleaf plant response rating value was observed for CCNC(=O)c1cccc(NC(=O)c2sc(C(C)(C)C)nc2C)c1 [Compound 198] ?
Reply text: 20
